Molecular target: AURKB (human) (UniProt Q96GD4)
Sequence (Q96GD4 whole entry, looked up): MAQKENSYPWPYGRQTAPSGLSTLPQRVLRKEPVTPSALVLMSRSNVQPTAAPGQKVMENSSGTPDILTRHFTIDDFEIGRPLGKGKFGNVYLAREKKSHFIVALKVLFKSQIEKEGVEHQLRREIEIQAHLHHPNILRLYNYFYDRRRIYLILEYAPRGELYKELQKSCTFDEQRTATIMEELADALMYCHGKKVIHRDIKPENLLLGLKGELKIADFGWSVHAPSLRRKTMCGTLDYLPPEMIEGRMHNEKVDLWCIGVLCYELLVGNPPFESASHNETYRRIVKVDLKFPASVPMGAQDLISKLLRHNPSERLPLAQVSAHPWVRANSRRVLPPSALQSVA
Assay: radiometric filter-binding kinase assay, Kinase HotSpot
Settings: compound 0.5 µM; ATP 10 µM
OBSERVABLE: residual activity (%)
Number only, in %; omit the unit.

Worked examples follow.
COc1ccc2c(c1)c(C1=C(c3c[nH]c4ccccc34)C(=O)NC1=O)cn2CCCN(C)C :: 88.5
Cc1cccc(-c2nc(C(C)(C)C)[nH]c2-c2ccc3c(c2)OCO3)n1 :: 96.5
Cc1nc(-c2ccccc2)c(-c2ccncc2)o1 :: 97.3
CO[C@@H]1[C@H](N(C)C(=O)c2ccccc2)C[C@H]2O[C@]1(C)n1c3ccccc3c3c4c(c5c6ccccc6n2c5c31)C(=O)NC4 :: 2.96
Ic1cccc(CSc2nnc(-c3ccncc3)o2)c1 :: 99.1

Identify the reported residual activity for the following entry. `O=C1c2ccccc2-c2nc3nnnn3nc21`
84.7

Identify the reported residual activity for the following entry. `COc1ccc(C(=O)Nc2sc3c(c2C(N)=O)CCCC3)cc1OC`
96.2

Identify the reported residual activity for the following entry. `O=C(c1cc2cc(O)ccc2[nH]1)c1cc2cc(O)ccc2[nH]1`
24.2

Identify the reported residual activity for the following entry. `O=C1C(Cl)=C(N2C(=O)CCC2=O)C(=O)c2ccccc21`
103

Identify the reported residual activity for the following entry. `CS(=O)(=O)CCNCc1ccc(-c2ccc3ncnc(Nc4ccc(OCc5cccc(F)c5)c(Cl)c4)c3c2)o1`
98.4

---

Target: UniProtKB P34947
Sequence (P34947 whole entry, looked up): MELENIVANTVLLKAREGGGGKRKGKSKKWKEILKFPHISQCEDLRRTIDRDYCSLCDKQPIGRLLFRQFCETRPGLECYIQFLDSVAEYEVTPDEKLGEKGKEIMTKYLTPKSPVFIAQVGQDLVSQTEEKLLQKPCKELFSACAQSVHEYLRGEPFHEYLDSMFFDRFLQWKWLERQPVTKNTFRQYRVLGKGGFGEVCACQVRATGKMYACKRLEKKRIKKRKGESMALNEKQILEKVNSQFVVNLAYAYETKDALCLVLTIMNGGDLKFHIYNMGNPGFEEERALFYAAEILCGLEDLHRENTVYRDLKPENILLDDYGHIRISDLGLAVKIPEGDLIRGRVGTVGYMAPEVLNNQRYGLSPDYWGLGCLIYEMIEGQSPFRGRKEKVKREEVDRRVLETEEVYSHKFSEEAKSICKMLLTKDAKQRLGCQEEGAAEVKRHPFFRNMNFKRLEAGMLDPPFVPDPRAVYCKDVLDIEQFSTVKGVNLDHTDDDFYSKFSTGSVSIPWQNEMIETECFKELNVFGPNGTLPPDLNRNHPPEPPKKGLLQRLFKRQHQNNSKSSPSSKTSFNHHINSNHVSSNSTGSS
Assay: radiometric filter-binding kinase assay, Kinase HotSpot
Details: compound 0.5 µM; ATP 10 µM
residual activity overview

Worked examples follow.
COc1ccc(C(=O)Nc2sc3c(c2C(N)=O)CCCC3)cc1OC :: 104%
Cc1cccc(-c2nc(C(C)(C)C)[nH]c2-c2ccc3c(c2)OCO3)n1 :: 108%
COc1cc(Nc2c(C#N)cnc3cc(OCCCN4CCN(C)CC4)c(OC)cc23)c(Cl)cc1Cl :: 109%

Identify the reported residual activity for the following entry. `N#C/C(=C\c1ccc(O)c(O)c1)C(=O)NCc1ccccc1`
108%

Identify the reported residual activity for the following entry. `COc1ccc2c(c1)c(C1=C(c3c[nH]c4ccccc34)C(=O)NC1=O)cn2CCCN(C)C`
114%

Identify the reported residual activity for the following entry. `CS(=O)(=O)CCNCc1ccc(-c2ccc3ncnc(Nc4ccc(OCc5cccc(F)c5)c(Cl)c4)c3c2)o1`
97.2%

Identify the reported residual activity for the following entry. `O=C1NC(=O)c2c1c1c3ccccc3[nH]c1n1cncc21`
94.4%

---

Molecular target: SYK (human) (UniProt P43405)
Test: radiometric filter-binding kinase assay, Kinase HotSpot
Conditions: compound 0.5 µM; ATP 10 µM
residual activity overview
Answer with the number, then the unit.

Worked examples follow.
CN(C)c1ccc(/C=C2\C(=O)Nc3ccccc32)cc1 :: 90.4%
Cn1c2ccccc2c2c3c(c4c5ccccc5n(CCC#N)c4c21)CNC3=O :: 14.6%

With SYK (human) (UniProt P43405) as the test system, provide measured residual activity for this compound: `O=C1NC(=O)c2c1c1c3ccccc3[nH]c1n1cncc21`
84.9%

With SYK (human) (UniProt P43405) as the test system, provide measured residual activity for this compound: `CN(C)CCCn1cc(C2=C(c3c[nH]c4ccccc34)C(=O)NC2=O)c2ccccc21`
90%

With SYK (human) (UniProt P43405) as the test system, provide measured residual activity for this compound: `CC(C)(C)c1cc(C=C(C#N)C#N)cc(Br)c1O`
97.6%
